assayedTarget: T1, Human CD19-his protein (human, UniProt P15391 20-291)
T1 construct: bought protein; also called human CD19 protein; recombinant human CD19-His; not shown: His tag
T1 sequence (looked up): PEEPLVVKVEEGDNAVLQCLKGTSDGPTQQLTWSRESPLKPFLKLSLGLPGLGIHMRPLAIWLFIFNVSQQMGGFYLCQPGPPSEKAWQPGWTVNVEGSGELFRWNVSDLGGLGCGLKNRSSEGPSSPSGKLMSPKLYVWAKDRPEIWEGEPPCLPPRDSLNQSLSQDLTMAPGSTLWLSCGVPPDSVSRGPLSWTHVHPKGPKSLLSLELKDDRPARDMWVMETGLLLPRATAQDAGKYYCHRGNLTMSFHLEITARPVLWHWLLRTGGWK
protocolText: ELISA, antibody at 10 nM
Exercise: state measured OD450 for each of the binders provided.

# binder, obsValue
measured = [
    ("F3.83.9 (antibody, human IgG1, V domains shown, human-murine chimeric antibody, human IgG1) VH: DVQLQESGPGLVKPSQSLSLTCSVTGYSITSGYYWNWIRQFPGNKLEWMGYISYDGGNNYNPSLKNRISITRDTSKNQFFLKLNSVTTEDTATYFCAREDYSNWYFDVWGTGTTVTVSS VL: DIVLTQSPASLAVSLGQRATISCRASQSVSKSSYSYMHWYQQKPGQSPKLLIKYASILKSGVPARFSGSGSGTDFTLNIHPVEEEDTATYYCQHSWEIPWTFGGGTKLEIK", 0.6),
    ("F4.22.6 (antibody, human IgG1, V domains shown, human-murine chimeric antibody, human IgG1) VH: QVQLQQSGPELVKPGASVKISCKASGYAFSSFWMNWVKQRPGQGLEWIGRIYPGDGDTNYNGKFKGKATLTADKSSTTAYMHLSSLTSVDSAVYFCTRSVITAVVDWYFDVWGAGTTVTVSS VL: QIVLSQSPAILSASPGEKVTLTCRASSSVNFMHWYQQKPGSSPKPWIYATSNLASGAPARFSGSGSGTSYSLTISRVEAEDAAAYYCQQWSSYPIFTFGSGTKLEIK", 0.96),
    ("F3.3.10 (antibody, human IgG1, V domains shown, human-murine chimeric antibody, human IgG1) VH: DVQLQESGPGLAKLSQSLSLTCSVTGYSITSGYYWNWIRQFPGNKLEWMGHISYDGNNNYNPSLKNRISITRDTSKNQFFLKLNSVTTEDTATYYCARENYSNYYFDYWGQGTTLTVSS VL: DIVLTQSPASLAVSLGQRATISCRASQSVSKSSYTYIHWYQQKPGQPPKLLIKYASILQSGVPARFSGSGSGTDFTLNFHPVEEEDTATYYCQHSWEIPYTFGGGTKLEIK", 0.42),
    ("F6.12.12 (antibody, human IgG1, V domains shown, human-murine chimeric antibody, human IgG1) VH: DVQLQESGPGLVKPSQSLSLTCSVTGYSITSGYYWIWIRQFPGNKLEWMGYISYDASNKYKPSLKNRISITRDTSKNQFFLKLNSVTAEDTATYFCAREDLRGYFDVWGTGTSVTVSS VL: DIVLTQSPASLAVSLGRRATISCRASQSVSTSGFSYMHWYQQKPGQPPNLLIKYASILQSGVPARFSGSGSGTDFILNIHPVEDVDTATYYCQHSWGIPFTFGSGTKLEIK", 1.08),
    ("F6.2.9 (antibody, human IgG1, V domains shown, human-murine chimeric antibody, human IgG1) VH: QVQLQQSGAELVKPGASVKISCKASGYAFSSYWMNWVKQRPGKGLEWIGQIYPGDGDTNYNGKFKGKATLTADKSSSTGYMQLSSLTSEDSAVYFCARSRITSVVDWYFDVWGTGTTVTVSS VL: QIVLSQSPAILSASPGEKVTMTCRASSSVSYMHWYQQKPGSSPKPWIYATSNLASGVPARFSGSGSGTSYSLTISRVEAEDAATYYCQQWSSNPPTFGAGTKLELK", 0.26),
]

Parameters: items (list). Returns: OD450 for each item.
1. F5.7.1 (antibody, human IgG1, V domains shown, human-murine chimeric antibody, human IgG1) VH: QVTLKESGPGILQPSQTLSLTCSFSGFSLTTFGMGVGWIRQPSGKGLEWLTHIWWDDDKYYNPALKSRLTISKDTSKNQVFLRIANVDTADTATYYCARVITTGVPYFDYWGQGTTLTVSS VL: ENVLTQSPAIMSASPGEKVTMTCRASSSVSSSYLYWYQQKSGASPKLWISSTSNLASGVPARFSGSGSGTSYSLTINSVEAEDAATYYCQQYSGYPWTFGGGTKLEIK
2. F4.82.11 (antibody, human IgG1, V domains shown, human-murine chimeric antibody, human IgG1) VH: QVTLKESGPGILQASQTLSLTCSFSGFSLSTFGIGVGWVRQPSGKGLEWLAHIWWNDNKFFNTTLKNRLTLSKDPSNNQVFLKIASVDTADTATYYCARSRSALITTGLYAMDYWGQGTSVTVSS VL: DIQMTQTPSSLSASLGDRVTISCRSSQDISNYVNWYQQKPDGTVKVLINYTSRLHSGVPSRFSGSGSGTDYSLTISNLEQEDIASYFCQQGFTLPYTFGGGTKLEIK
3. F3.113.16 (antibody, human IgG1, V domains shown, human-murine chimeric antibody, human IgG1) VH: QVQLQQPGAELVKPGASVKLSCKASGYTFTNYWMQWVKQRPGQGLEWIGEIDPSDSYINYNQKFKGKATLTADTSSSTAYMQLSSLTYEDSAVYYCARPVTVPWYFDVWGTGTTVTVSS VL: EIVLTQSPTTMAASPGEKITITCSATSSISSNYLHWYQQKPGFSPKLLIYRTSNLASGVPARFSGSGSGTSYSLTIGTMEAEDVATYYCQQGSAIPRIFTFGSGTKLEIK
4. F4.145.9 (antibody, human IgG1, V domains shown, human-murine chimeric antibody, human IgG1) VH: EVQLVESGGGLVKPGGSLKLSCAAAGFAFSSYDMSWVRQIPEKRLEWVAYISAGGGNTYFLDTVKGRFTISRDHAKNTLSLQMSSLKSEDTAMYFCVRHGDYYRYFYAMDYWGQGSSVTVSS VL: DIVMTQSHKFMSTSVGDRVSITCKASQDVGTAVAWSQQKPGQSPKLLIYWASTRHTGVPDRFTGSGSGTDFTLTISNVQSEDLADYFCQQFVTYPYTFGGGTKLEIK

1.78
1.55
0.34
1.73

Indicate the recorded OD450 value for this binder: F4.276.12 (antibody, human IgG1, V domains shown, human-murine chimeric antibody, human IgG1) VH: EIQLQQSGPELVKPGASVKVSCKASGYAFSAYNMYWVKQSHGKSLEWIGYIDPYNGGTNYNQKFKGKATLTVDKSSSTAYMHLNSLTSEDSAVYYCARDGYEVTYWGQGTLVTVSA VL: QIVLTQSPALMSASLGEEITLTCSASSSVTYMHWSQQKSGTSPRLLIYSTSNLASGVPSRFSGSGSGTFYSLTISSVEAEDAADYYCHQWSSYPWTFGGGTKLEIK
1.2
